target: Human IDO1 (Homo sapiens (Human)); experiment: IDO Kynurenine Assay with Human IDO1/HEK293 Cells; conditions: 20 hours incubation, kynurenine detected with Ehrlich reagent, absorbance at 490 nm, read-out: HEK Human IDO-1 IC50
Sequence (P14902 whole entry): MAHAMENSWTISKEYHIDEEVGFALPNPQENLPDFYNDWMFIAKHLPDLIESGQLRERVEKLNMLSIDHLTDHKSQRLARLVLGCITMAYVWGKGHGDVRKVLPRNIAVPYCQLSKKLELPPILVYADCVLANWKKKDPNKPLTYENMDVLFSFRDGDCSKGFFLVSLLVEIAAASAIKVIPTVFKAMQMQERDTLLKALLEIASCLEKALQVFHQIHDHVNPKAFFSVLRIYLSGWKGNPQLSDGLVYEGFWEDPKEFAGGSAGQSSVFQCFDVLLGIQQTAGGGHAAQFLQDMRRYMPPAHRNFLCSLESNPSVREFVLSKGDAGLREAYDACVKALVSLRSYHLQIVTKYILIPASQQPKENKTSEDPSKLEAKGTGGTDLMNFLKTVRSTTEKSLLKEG
Label TRUE when IC50 is strictly below 0.1 µM; at or above that, label FALSE.

Examples from the recorded data:
CC(C)CN(CC(C)C)c1ccc([C@@H]2C[C@@H]2C(=O)O)cc1NC(=O)Nc1ccc(OCC(F)(F)F)cc1 [Example 72]    FALSE
COC(=O)C1CC1c1ccc(N(CC(C)C)CC(C)C)c([N+](=O)[O-])c1 (stereo not drawn) [ent-1J]    TRUE
CC(C)CN(CC(C)C)c1ccc([C@H]2C[C@H]2C(=O)O)cc1NC(=O)Nc1ccc(Cl)c(Cl)c1 [Example 6]    FALSE
CC(C)CN(CC(C)C)c1ccc([C@H]2C[C@H]2C(=O)O)cc1NC(=O)Cc1ccc(F)cc1 [Example 117]    TRUE
COCCN(Cc1ccc(Cl)cc1)c1ccc([C@H]2C[C@H]2C(=O)O)cc1NC(=O)Nc1ccc(C)cc1 (single isomer, unassigned) [Example 43]    TRUE
O=C(Nc1cncnc1)Nc1cc([C@H]2C[C@H]2C(=O)O)ccc1N(CCC(F)(F)F)C1CCCCC1 [Example 87]    FALSE

(Q) Does the reported IC50 of Cc1ccc(NC(=O)Nc2cc([C@H]3C[C@H]3C(=O)O)ccc2N(CC(C)C)CC(C)C)c(Cl)c1 [Example 14] stay below 0.1 µM?
(A) TRUE
